FYI, the data here is from the supplement of paper PMC11246515.

- assay_explanation: total protein half-life in vivo (active degradation + dilution); higher = more stable protein
- test_conditions: E. coli NCM3722 delta-clpP delta-lon delta-hslV; growth: N-lim chemostat; doubling time 6 h
quantity_name: total protein half-life in vivo (h)
Please respond with the number in h and leave the unit unwritten.

residue_string	quantity_name	reported_result
MDLNTLISQYGYAALVIGSLAEGETVTLLGGVAAHQGLLKFPLVVLSVALGGMIGDQVLYLCGRRFGGKLLRRFSKHQDKIERAQKLIQRHPYLFVIGTRFMYGFRVIGPTLIGASQLPPKIFLPLNILGAFAWALIFTTIGYAGGQVIAPWLHNLDQHLKHWVWLILVVVLVVGVRWWLKRRGKKKPDHQA	total protein half-life in vivo	6.78

Q. // query total protein half-life in vivo value for entry MDKSKRHLAWWVVGLLAVAAIVAWWLLRPAGVPEGFAVSNGRIEATEVDIASKIAGRIDTILVKEGKFVREGEVLAKMDTRVLQEQRLEAIAQIKEAQSAVAAAQALLEQRQSETRAAQSLVNQRQAELDSVAKRHTRSRSLAQRGAISAQQLDDDRAAAESARAALESAKAQVSASKAAIEAARTNIIQAQTRVEAAQATERRIAADIDDSELKAPRDGRVQYRVAEPGEVLAAGGRVLNMVDLSDVYMTFFLPTEQAGTLKLGGEARLILDAAPDLRIPATISFVASVAQFTPKTVETSDERLKLMFRVKARIPPELLQQHLEYVKTGLPGVAWVRVNEELPWPDDLVVRLPQ
A. 7.13
